- System: RARb:RXRa (NR concentration 270 nM, RXRa partner concentration 90 nM)
- assay.overview: PBM binding z-score (relative to random genomic background probes); higher = stronger binding; sequences stand for … in GC…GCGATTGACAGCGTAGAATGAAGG
Output: class label from PBM binding z-score. Mapping: I: < 0.9; II: ≥ 0.9 and < 2; III: ≥ 2

Challenge: Sort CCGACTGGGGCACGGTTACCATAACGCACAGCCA into one of the categories.
Response given: II

Challenge: Exercise: read the entry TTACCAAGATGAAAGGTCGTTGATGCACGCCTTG and state which class it falls under.
Response given: II

Challenge: Field: class (PBM binding z-score) — entry: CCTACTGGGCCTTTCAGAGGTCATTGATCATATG
Response given: III

Challenge: Band for GCGACTGGGGCATCAGAAGGTTACCATAACTTAA ?
Response given: II

Challenge: Which band does TCCCGGAGGACACGAAGGTCAGAGCTTTCCAGAG fall in?
Response given: III

Next:
Challenge: Please report the category associated with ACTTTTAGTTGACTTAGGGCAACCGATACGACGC , nothing else.
Response given: II

Challenge: Lab log: ACAGACAGGTGATGAAGGTACCTCAGGCTATCAT — assign PBM binding z-score category
Response given: I

Challenge: # bin lookup: classify GCGACTGGGGCAAACCAGGTTACCATAAGGTTGG by its PBM binding z-score
Response given: II

Challenge: GET /class?item= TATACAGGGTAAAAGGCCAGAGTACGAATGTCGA
Response given: II

Challenge: # classify by PBM binding z-score band: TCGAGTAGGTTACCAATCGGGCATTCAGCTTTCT
Response given: I

Challenge: Quick check: band for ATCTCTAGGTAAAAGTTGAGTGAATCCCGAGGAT
Response given: I
